Data provenance is the supplement of paper PMC10065799.

Measurement target: c-Src SH2;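 note: peptide library displayed on the E. coli surface as eCPX fusions, selected cells deep-sequenced, score is each peptide's frequency after selection divided by its frequency in the input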
Assay protocol: SH2 binding enrichment of the phosphorylated peptide, bacterial display (enrichment ratio); higher = better substrate or ligand; peptides without Tyr show the background
Parameter SH2 binding enrichment: see the listing below.
Lab note: write the figure by itself, no unit.

See these solved cases before continuing.
1) PIPAAYNKFDQ [CDC73_Y290_R292K_YF]	0.509
2) PQQLWYTHKKK [UBTF_Y207_E210K]	0.515
3) TLGPFYPSLLF [CRYAA_Y18_R21L]	0.366
4) CTLNVYRQLHN [LUZP1_Y1036_S1034N]	0.382
5) MEVGQYIFVKC [CYBB_Y324]	0.539

Task item: Report SH2 binding enrichment for IETGRYEILTE please.
Reply: 21.6

Task item: Would you mind telling me what SH2 binding enrichment value was observed for GLRFGYGVLGG [KRTAP20-2_Y15_YF] ?
Reply: 0.493

Task item: Any idea what its SH2 binding enrichment is? The sequence is SQETFYRVSNM [ABCD1_Y181_Q178E_YF]
Reply: 0.597

Task item: Name the reported SH2 binding enrichment value associated with the sequence HELFVYKSDEN [DOCK3_Y548_C550S_YF]
Reply: 0.604

Task item: So what does the record say about SH2 binding enrichment for QLFGAYLRIHA [BSCL2_Y213_YF] ?
Reply: 0.972

====

Measurement target: EPHB2 (UniProt P29323)
Sequence (P29323 whole entry, looked up): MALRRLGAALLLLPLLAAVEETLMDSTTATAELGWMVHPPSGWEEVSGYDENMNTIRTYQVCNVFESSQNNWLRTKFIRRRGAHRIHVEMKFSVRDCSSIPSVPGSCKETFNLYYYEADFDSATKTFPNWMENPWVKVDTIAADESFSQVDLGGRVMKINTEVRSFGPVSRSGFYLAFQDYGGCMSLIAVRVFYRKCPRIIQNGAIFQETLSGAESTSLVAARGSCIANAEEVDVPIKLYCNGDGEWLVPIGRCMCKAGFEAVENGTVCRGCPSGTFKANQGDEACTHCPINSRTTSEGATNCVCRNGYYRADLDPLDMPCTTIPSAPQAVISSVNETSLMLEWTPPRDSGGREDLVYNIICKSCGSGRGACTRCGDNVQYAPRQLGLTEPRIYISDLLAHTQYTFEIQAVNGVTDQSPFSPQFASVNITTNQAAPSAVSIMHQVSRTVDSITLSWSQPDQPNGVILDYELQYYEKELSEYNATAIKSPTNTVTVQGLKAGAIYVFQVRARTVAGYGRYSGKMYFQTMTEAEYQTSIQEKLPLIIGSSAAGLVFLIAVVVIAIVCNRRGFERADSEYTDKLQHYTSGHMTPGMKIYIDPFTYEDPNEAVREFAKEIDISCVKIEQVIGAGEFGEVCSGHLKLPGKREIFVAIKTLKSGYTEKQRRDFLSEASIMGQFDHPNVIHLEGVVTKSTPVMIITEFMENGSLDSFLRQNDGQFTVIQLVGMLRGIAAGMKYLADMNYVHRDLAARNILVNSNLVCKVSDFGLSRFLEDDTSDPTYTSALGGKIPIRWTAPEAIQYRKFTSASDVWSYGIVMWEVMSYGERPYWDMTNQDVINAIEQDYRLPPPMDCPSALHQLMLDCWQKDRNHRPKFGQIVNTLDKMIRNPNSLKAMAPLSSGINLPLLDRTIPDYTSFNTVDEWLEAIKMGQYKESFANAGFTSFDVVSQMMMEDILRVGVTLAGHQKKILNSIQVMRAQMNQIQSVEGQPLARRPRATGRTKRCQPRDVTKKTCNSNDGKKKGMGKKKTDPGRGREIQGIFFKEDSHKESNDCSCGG
Assay protocol: phosphorylation enrichment, bacterial display (enrichment ratio); higher = better substrate or ligand; peptides without Tyr show the background
Quick rule for you: phosphorylation enrichment at 0.6 or higher means T, lower means F.

A selection of reference data follows.
1) YLENYYDLEKD [MMP3_Y42_K45E]	T
2) NTQRPHFKGGG [TYROBP_Y111_Y111H_YF]	T
3) DLRTGYSVPYG [TGM1_Y370_Y365D]	F

Task item: Is the recorded value of phosphorylation enrichment equal to or greater than 0.6 for this sequence? FLTSSYINIST [IL23R_Y178_YF]
Reply: F

====

Test system: c-Abl (mouse)
Assay protocol: phosphorylation enrichment, bacterial display (enrichment ratio); higher = better substrate or ligand; peptides without Tyr show the background
Quick reference: phosphorylation enrichment of the listed items.

1. KYRREYILSLE [GPC3_Y299_W296R]	0.511
2. MNLLGYRHVRS [CHST4_Y359]	0.663

Task item: What value of phosphorylation enrichment has been reported for the following sequence? NNHGNYIVLLG [ETFDH_Y172_R175L]
Reply: 0.644

Task item: Returns the measured phosphorylation enrichment for the input sequence. Input: LNEQHYGGLTG [PGAM4_Y92_R90Q]
Reply: 1.5

====

Measurement target: FGFR1 (UniProt P11362)
Sequence (P11362 whole entry, looked up): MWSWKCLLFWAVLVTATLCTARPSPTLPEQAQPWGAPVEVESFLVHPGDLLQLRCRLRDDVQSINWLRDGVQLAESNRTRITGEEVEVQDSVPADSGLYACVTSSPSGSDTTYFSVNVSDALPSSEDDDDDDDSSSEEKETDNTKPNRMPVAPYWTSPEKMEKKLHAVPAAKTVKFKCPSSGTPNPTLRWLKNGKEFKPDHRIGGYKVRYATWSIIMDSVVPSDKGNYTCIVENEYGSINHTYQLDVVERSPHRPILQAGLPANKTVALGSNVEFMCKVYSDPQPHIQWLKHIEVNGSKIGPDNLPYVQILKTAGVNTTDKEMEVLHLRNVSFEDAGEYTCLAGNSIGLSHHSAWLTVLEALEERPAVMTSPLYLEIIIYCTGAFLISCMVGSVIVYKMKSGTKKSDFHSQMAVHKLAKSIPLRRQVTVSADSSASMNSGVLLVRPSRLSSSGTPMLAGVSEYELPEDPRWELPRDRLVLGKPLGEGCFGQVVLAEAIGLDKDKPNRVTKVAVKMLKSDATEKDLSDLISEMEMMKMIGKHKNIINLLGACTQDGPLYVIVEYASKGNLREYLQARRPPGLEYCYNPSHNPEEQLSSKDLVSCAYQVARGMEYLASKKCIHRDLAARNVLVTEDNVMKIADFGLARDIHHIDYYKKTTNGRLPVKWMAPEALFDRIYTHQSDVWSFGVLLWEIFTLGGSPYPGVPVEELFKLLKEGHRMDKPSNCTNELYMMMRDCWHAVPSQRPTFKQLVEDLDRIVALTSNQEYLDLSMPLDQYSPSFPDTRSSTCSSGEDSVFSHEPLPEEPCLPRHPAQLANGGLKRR
Assay protocol: phosphorylation enrichment, bacterial display (enrichment ratio); higher = better substrate or ligand; peptides without Tyr show the background
Classify as follows. Reported phosphorylation enrichment greater than or equal to 0.9: MET. Reported phosphorylation enrichment below: NOT MET.

Take a look at these entries with their results.
1. VHHLVYHHHHH [CACNA1H_Y519]	NOT MET
2. IDAVCYFRMEN [NPHS2_Y194_I192V_YF]	MET

Task item: Tell me whether phosphorylation enrichment is at least 0.9 here: RGYRQDAYDGK [HLA-A_Y140]
Reply: NOT MET

Task item: Tell me whether phosphorylation enrichment is at least 0.9 here: HTLIKYTDGDQ [PUS7L_Y94]
Reply: MET

Task item: hey, is phosphorylation enrichment for this one >= 0.9? NSRFTCKLEVK [USH2A_Y3747_Y3747C_YF]
Reply: NOT MET

Task item: Is phosphorylation enrichment at least 0.9? Consider IETGRYEILTE
Reply: NOT MET
